Assay text: Volume of distribution at steady state in Sprague-Dawley rat plasma at 1 mg/kg, iv administered via infusion over 30 mins measured over 24 hrs by LC/MS/MS analysis
Type: ADME, organism-based
Experimental context: read-out: Vdss
Vd listing for selected compounds.
Please reply with the bare figure in L/kg and do not write the unit itself.

INSERT INTO assay_data (chemical_smiles, unit_of_measurement, endpoint_value) VALUES
  ('Nc1nc(N)c(Cl)c(N[C@H](c2nc3cccc(Cl)c3c(=O)n2-c2cc[nH]n2)C2CC2)n1', 'L/kg', 0.83),
  ('N#Cc1c(N)nc(N)nc1N[C@H](c1nc2c(Cl)cc(F)cc2c(=O)n1-c1cc[nH]n1)C1CC1', 'L/kg', 0.22),
  ('C[C@H](Nc1nc(N)nc(N)c1Cl)c1nc2cccc(Cl)c2c(=O)n1-c1cc[nH]n1', 'L/kg', 1.29);

Data request: If you can, please state the reported Vd value of C[C@H](Nc1nc(N)nc(N)c1Cl)c1nc2c(Cl)cc(F)cc2c(=O)n1-c1cc[nH]n1 .
Data returned: 0.52

====

Target system: PI3-kinase p110-delta/p85-alpha (Homo sapiens)
Sequence (P27986 whole entry): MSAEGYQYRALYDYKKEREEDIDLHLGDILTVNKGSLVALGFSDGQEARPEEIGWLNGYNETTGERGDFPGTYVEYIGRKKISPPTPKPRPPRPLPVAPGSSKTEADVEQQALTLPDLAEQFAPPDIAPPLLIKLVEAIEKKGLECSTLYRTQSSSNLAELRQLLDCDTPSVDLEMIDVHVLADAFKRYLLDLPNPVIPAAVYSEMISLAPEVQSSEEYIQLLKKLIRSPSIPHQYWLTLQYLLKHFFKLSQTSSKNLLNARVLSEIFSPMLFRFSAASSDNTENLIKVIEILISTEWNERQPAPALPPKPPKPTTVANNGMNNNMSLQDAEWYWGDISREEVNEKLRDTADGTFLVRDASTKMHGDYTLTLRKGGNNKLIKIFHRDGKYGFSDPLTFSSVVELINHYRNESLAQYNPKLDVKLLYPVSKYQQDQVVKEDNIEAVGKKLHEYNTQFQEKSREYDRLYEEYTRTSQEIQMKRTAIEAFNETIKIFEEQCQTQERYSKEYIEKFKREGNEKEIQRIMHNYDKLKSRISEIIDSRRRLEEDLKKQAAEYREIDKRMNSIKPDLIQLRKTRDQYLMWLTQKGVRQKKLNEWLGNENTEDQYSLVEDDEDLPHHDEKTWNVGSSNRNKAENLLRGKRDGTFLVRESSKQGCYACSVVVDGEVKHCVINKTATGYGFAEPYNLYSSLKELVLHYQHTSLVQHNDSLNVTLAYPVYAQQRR
Sequence (O00329 whole entry): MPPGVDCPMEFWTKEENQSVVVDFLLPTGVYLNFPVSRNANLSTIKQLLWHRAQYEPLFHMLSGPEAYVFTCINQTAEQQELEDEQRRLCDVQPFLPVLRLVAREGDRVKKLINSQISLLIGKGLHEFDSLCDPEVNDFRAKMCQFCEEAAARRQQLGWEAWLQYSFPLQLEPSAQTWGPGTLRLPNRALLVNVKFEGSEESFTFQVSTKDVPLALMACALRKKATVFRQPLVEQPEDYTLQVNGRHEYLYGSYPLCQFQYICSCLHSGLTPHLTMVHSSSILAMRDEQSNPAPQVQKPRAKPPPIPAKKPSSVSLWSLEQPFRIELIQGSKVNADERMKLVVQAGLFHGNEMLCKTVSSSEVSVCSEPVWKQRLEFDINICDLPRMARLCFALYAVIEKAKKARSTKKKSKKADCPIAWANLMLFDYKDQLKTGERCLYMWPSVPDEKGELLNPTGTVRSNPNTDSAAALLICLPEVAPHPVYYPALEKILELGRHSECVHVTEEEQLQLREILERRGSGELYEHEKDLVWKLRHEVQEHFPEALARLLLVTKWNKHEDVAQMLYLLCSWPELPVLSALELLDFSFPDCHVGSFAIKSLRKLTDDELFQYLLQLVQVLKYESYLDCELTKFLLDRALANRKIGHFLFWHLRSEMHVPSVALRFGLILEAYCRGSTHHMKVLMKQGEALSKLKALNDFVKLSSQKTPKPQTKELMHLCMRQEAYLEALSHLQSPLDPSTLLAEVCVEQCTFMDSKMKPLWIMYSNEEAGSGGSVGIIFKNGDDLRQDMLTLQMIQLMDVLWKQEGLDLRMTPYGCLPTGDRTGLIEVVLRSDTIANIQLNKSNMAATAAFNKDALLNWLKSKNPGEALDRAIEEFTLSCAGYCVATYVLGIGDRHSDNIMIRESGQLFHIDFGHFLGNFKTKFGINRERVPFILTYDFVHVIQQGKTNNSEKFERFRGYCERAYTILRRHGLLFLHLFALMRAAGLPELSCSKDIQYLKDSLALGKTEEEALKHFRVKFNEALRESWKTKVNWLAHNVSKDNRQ
Assay text: Inhibition of human full length PI3K p110delta/p85 alpha using PIP2/ATP as substrate after 30 mins by TR-FRET assay
# pIC50 per record follows
Worth noting: pIC50 values are minus log10 of concentrations stated in mol/L.

INSERT INTO results (chemical_smiles, measurement_name, endpoint_value) VALUES
  ('C[C@H](Nc1ncnc(N)c1C#N)c1nc2cccc(Cl)c2c(=O)n1-c1ccccc1', 'pIC50', 9.47);

Alright, here's another compound for you.
Data request: Requested read-out: pIC50. Entry: CC[C@H](Nc1ncnc2[nH]cnc12)c1nc2cccc(F)c2c(=O)n1-c1ccc(O)cc1
Data returned: 7.85

====

Assay text: Permeability from basolateral to apical side in human Caco2 cells
Type: ADME, cell-based
Experimental context: Caco-2, read-out: permeability
Papp B→A values by entry
Unit ×10⁻⁶ cm/s implied. Number only.

Sample answers from the record:
INSERT INTO assay_data (chemical_smiles, measurement_name, unit_of_measurement, endpoint_value) VALUES
  ('N#Cc1c(N)nc(N)nc1N[C@H](c1nc2c(Cl)cc(F)cc2c(=O)n1-c1cc[nH]n1)C1CC1', 'Papp B→A', '×10⁻⁶ cm/s', 17.3),
  ('C[C@H](Nc1nc(N)nc(N)c1Cl)c1nc2c(Cl)cc(F)cc2c(=O)n1-c1cc[nH]n1', 'Papp B→A', '×10⁻⁶ cm/s', 21.7),
  ('Nc1nc(N)c(Cl)c(N[C@H](c2nc3cccc(Cl)c3c(=O)n2-c2cc[nH]n2)C2CC2)n1', 'Papp B→A', '×10⁻⁶ cm/s', 11.8);

Consider the additional compound presented here.
Data request: I would be grateful if you could share the reported Papp B→A for C[C@H](Nc1nc(N)nc(N)c1Cl)c1nc2cccc(Cl)c2c(=O)n1-c1cc[nH]n1 .
Data returned: 19.6

====

Target system: PI3-kinase p110-alpha/p85-alpha (Homo sapiens, UniProt P42336)
Sequence (P42336 whole entry, one chain of several): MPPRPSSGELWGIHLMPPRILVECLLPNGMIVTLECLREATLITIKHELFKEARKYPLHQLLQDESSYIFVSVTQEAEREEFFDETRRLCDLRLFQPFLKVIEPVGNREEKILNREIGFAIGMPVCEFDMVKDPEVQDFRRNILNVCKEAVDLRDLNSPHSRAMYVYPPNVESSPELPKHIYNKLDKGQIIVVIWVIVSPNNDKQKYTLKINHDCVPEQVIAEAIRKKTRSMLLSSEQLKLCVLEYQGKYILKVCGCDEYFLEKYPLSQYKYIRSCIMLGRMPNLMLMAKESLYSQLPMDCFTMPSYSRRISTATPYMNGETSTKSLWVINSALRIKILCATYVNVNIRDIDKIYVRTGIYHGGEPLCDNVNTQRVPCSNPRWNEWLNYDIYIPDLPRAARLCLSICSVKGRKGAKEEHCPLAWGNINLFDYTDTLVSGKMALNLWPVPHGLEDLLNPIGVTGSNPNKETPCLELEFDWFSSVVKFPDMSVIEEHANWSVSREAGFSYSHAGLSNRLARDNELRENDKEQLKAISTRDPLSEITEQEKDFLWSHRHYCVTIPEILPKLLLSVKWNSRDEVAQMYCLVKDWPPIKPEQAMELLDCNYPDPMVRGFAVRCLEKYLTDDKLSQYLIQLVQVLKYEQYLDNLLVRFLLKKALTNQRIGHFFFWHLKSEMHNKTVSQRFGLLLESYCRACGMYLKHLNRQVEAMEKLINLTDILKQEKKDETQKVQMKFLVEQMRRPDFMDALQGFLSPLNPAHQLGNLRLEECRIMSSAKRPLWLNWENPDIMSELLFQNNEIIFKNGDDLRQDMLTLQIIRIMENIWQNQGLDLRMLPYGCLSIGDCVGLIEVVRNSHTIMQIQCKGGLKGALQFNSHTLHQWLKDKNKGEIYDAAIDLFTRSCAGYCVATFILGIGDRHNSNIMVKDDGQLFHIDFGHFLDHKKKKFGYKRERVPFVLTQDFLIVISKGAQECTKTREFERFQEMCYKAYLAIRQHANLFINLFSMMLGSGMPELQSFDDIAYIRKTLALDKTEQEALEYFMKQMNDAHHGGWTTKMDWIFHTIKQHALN
Assay text: Inhibition of human full length PI3K p110alpha/p85 alpha using PIP2/ATP as substrate after 30 mins by TR-FRET assay
Measurement name: pIC50
Remember, pIC50 is on a log scale: it is -log10 of the molar concentration.

Reference set, count: 2
INSERT INTO results (chemical_smiles, target_system, measurement_name, endpoint_value) VALUES
  ('CC[C@H](Nc1ncnc2[nH]cnc12)c1nc2cccc(F)c2c(=O)n1-c1ccc(O)cc1', 'PI3-kinase p110-alpha/p85-alpha (Homo sapiens, UniProt P42336)', 'pIC50', 5.80),
  ('C[C@H](Nc1ncnc(N)c1C#N)c1nc2cccc(Cl)c2c(=O)n1-c1ccccc1', 'PI3-kinase p110-alpha/p85-alpha (Homo sapiens, UniProt P42336)', 'pIC50', 5.69);

Now look at this one.
Data request: // fetch PI3-kinase p110-alpha/p85-alpha (Homo sapiens, UniProt P42336) pIC50 for N#Cc1c(N[C@H](c2nc3c(Cl)cc(F)cc3c(=O)n2-c2cc[nH]n2)C2CC2)nc(N)nc1C(F)F
Data returned: 6.12

====

Assay text: Apparent terminal half life in rhesus monkey plasma at 1 mg/kg, iv administered via infusion over 30 mins measured over 24 hrs by LC/MS/MS analysis
Assay type: ADME, organism-based, Macaca mulatta
Experimental context: read-out: betat1/2(app) (converted)
Measurement name: half-life (h)
State the answer as a number, implicitly in h.

Data request: Given C[C@H](Nc1nc(N)nc(N)c1Cl)c1nc2c(Cl)cc(F)cc2c(=O)n1-c1cc[nH]n1 , state its recorded half-life.
Data returned: 3.61

====

Assay text: Clearance in Beagle dog plasma at 1 mg/kg, iv administered via infusion over 30 mins measured over 24 hrs by LC/MS/MS analysis
Assay type: ADME, organism-based, Canis lupus familiaris
Measurement name: clearance (mL/min/kg)
Answer with a number only, understood to be in mL/min/kg.

Data request: Consider the compound C[C@H](Nc1nc(N)nc(N)c1Cl)c1nc2c(Cl)cc(F)cc2c(=O)n1-c1cc[nH]n1 and give its measured clearance.
Data returned: 4.17

====

Assay text: Volume of distribution at steady state in cynomolgus monkey at 1 mg/kg, iv administered via infusion over 30 mins measured over 24 hrs by LC/MS/MS analysis
Assay type: ADME, organism-based, Macaca fascicularis
Experimental context: in vivo, read-out: Vdss
Measurement name: Vd
Respond with a number, then the unit of measure.

Data request: // returns reported Vd for input C[C@H](Nc1nc(N)nc(N)c1Cl)c1nc2c(Cl)cc(F)cc2c(=O)n1-c1cc[nH]n1
Data returned: 1.5 L/kg
